Ref: the NIST ThermoML archive (doi:10.1021/je050389b)

- test.conditions: 318.15 K; 101 kPa; Liquid
Label Condition met when mass density >= 800 kg/m3; otherwise Condition not met.

Query: Given CCO [ethanol] , state whether its mass density is at least 800 kg/m3.
Response: Condition not met

Query: Given CCOC(=O)c1ccccc1 [ethyl benzoate] , state whether its mass density is at least 800 kg/m3.
Response: Condition met

====

- test.details: xn = mol fraction of the nth substance listed
- test.conditions: 318.15 K; 100.5 kPa; Liquid; x1 = 0.05
measurement.label: viscosity (mPa·s)
Number in mPa·s, nothing else.

Query: Look up and state reported viscosity for CCCCCCCC(=O)OCC [ethyl octanoate] + CCO
Response: 0.772

Query: Look up and state reported viscosity for CC(=O)OCCC(C)C [3-methylbutyl ethanoate] + CCO
Response: 0.716

Query: Look up and state reported viscosity for CCCCCC(=O)OCC [ethyl hexanoate] + CCO
Response: 0.732

Query: Look up and state reported viscosity for CCOC(=O)Cc1ccccc1 [ethyl phenylacetate] + CCO
Response: 0.798

Query: Look up and state reported viscosity for CCCC(=O)OCCC(C)C [3-methylbutyl butanoate] + CCO
Response: 0.744

Query: Look up and state reported viscosity for CCOC(=O)c1ccccc1 [ethyl benzoate] + CCO
Response: 0.778
